Test system: Staphylococcus aureus
Assay: Compound was tested for its antibacterial activity against MRSA (methicillin resistant) OC 2089.
Assay type: functional
endpoint_name: MIC (µg/mL)
Quick note: give the figure in µg/mL, leave out the unit.

For the compound O=C(Nc1ccc(Cl)c(Cl)c1)c1cc(Cl)cc(Cl)c1O [3,3',4',5-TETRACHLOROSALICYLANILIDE] , give its reported MIC.
0.25

Supply MIC value. Item: O=C(Nc1ccc(Cl)c(Cl)c1)c1cc(Cl)c(O)c(Cl)c1
16

Quickly give me recorded MIC for O=C(Nc1cc(Cl)cc(Cl)c1O)c1ccc(Cl)c(Cl)c1
0.25

###

Test system: Staphylococcus aureus
Assay: Compound was tested for its antibacterial activity against Staph aureus ATCC 29213.
Assay type: functional
endpoint_name: MIC (µg/mL)
# number only, unit µg/mL dropped from output

Indicate its recorded MIC; the molecule in question is O=C(Nc1ccc(Cl)c(Cl)c1)c1cc(Cl)c(O)c(Cl)c1
16

Identify measured MIC associated with Cc1onc(-c2ccccc2)c1C(=O)N[C@@H]1C(=O)N2[C@@H]1SC(C)(C)[C@@H]2C(=O)O
0.25

Answer with reported MIC of O=C(Nc1ccc(Cl)c(Cl)c1)c1cc(Cl)cc(Cl)c1O [3,3',4',5-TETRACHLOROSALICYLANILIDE]
0.5

Item O=C(Nc1cc(Cl)cc(Cl)c1O)c1ccc(Cl)c(Cl)c1 : provide MIC
0.5

###

Biological target: KinA/Spo0F (sporulation kinase A/sporulation initiation phosphotransferase F) (Bacillus subtilis (strain 168), UniProt P06628+P16497)
Experiment: Inhibition of histidine protein kinase (KinA) phosphorylation in the presence of response regulator (Spo0F)
Format: protein assay
I'd appreciate it if you could supply IC50 values for the items below.

Give reported IC50 value for Oc1c(Cl)cc(Cl)cc1/C=C/c1ccc(Cl)c(Cl)c1
> 500 µM

Using known records, supply IC50 for O=C(Nc1ccc(Cl)c(Cl)c1)Nc1cc(Cl)cc(Cl)c1O
365 µM

Report IC50 for O=C(NCc1ccc(Cl)c(Cl)c1)c1cc(Cl)cc(Cl)c1O
> 500 µM

###

Tested on: Enterococcus faecalis
Assay: Compound was tested for its antibacterial activity against Enterococcus faecalis OC 3041.
Type: functional
Field: MIC. Provide a value for each of the compounds that follow.

Write down measured MIC (Enterococcus faecalis) for this compound. Cc1onc(-c2ccccc2)c1C(=O)N[C@@H]1C(=O)N2[C@@H]1SC(C)(C)[C@@H]2C(=O)O
16 µg/mL

Please report MIC with Enterococcus faecalis for item O=C(Nc1cc(Cl)cc(Cl)c1O)c1ccc(Cl)c(Cl)c1 .
2 µg/mL

Look up Enterococcus faecalis data: MIC of O=C(Nc1ccc(Cl)c(Cl)c1)c1cc(Cl)cc(Cl)c1O [3,3',4',5-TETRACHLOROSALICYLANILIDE] , then report it.
0.5 µg/mL

Given O=C(Nc1ccc(Cl)c(Cl)c1)c1cc(Cl)c(O)c(Cl)c1 , report its MIC on Enterococcus faecalis.
64 µg/mL
